Tested on: LOX IMVI
assay_procedure: NCI tumour cell line growth inhibition, 48 h
Calls of active or inactive are those of the source. Rule as the data show it: active = GI50 up to about 1.1 µM and inactive = higher.
measurement_type: GI50

Example cases with answers are listed next.
NCCSCCc1ccccc1	> 100 µM (inactive)
O/N=C(\CC(O)(C(F)(F)F)C(F)(F)F)c1cccs1	> 10 µM (inactive)
CC1CCCC2(O1)OC1CC(=O)OC1C1=C2C(=O)c2ccccc2C1=O (stereo not given)	2.64 µM (inactive)
Cc1ccc(C)c(N2C(=O)C(=O)C(c3nc4ccccc4s3)/C(=N/N)C2=O)c1 (stereo not given)	> 100 µM (inactive)

Shift focus to the following entry.
Supply GI50 value. Item: `C[C@]12CC/C(=N\O)C=C1CC[C@@H]1[C@@H]2CC[C@]2(C)C(=N/O)/C(=C/c3ccncc3)C[C@@H]12`
20 µM (inactive)

* * *

Test system: RXF 393
assay_procedure: NCI tumour cell line growth inhibition, 48 h
Active and inactive are the calls of the source. No stated cut-off is given here; in the data, active = GI50 up to about 1.1 µM and inactive = higher.
measurement_type: GI50

Some solved entries appear below for comparison.
COC/C=C\[C@@]1(O)CCCC[C@@H]1CC(OC)OC	> 54.3 µM (inactive)
CNC(=O)N(C1=NCC(C)S1)c1ccc(C)c(C)c1 (stereo not given)	2.46 µM (inactive)
O/N=C1\C(=C\c2ccc3c(c2)OCCO3)CCCC1C(NO)c1ccc2c(c1)OCCO2 (stereo not given)	25.8 µM (inactive)
CCOC(=O)/C(C#N)=C(/NNc1ccccc1)c1ccncc1C(=O)O	> 100 µM (inactive)
CC1=C(/C=C/C(C)=C/C2CC(N(C)C)=CC(=O)O2)C(C)(C)CCC1 (stereo not given)	14.9 µM (inactive)

Name the recorded GI50 of the item `CCCCCCOc1ccc(NC2=C(Cl)C(=O)c3c(O)ccc(O)c3C2=O)cc1` in your answer.
2.32 µM (inactive)

Please report GI50 for the following compound: `CCOC(=O)N1c2ccccc2S(=O)(=O)c2ccccc21`
> 100 µM (inactive)

* * *

Recorded GI50 values for a group of compounds are listed next.
Test system: MCF7
assay_procedure: NCI tumour cell line growth inhibition, 48 h
Activity calls are given as the source filed them. Rule as the data show it: active = GI50 up to about 1.1 µM and inactive = higher.

CC(=O)N1C(Nc2ccccc2)CCN1c1ccccc1 (stereo not given)	> 10 µM (inactive)

Report GI50 for C=C(C)C1CC2(C)C(C)CC(OC(=O)/C(C)=C\C)CC2C(OC(=O)/C(C)=C\C)C1O (stereo not given)
41.2 µM (inactive)

Supply measured GI50 of COC(=O)C1C(=O)CC(C)(O)C(C(=O)OC)C1c1ccc(N(C)C)cc1 (stereo not given) in your reply.
> 100 µM (inactive)

Indicate its recorded GI50; the compound in question is Cc1ccc2c(c1)C(=S)N1CSCC1c1nncn1-2 (stereo not given)
> 100 µM (inactive)

Please give the documented GI50 of CC(C)(O)CCC(O)C(C)(O)C1CCC2(O)C3=CC(=O)C4(O)CC(O)C(O)CC4(C)C3CCC12C.CC(C)(O)CCC(O)C(C)(O)C1CCC2(O)C3=CC(=O)C4CC(O)C(O)CC4(C)C3CCC12C (stereo not given)
86.7 µM (inactive)

* * *

System: SF-268
assay_procedure: NCI tumour cell line growth inhibition, 48 h
Active and inactive are the calls of the source. No stated cut-off is given here; in the data, active = GI50 up to about 1.1 µM and inactive = higher.
measurement_type: GI50

Some solved entries appear below for comparison.
Nc1nc(N)c2cc(S(=O)(=O)c3ccc4ccccc4c3)ccc2n1	5.22 µM (inactive)
COC(=O)[C@@H]1C[C@@H]2c3ccccc3N(S(=O)(=O)c3ccccc3)[C@@H]2N1C(=O)OC	> 100 µM (inactive)
CC1=C(C(=O)Nc2ccccc2)C(c2ccc(C3C(C(=O)Nc4ccccc4)=C(C)NC(C)=C3C(=O)Nc3ccccc3)cc2)C(C(=O)Nc2ccccc2)=C(C)N1	2.2 µM (inactive)

Tell me its GI50 on SF-268: Cc1ccc2c(c1)C(=S)N1CSCC1c1nncn1-2 (configuration not stated)
> 100 µM (inactive)

State GI50 on SF-268. Entry: `O=C(O)c1ccc2c(c1)Cc1cc([N+](=O)[O-])ccc1-2`
> 100 µM (inactive)

Enter GI50 (test system SF-268) for CC(C)=CCc1cc(C2COc3cc4c(c(O)c3C2=O)C=CC(C)(C)O4)c(O)cc1O (configuration not stated)
13.2 µM (inactive)

Give measured GI50 for `COc1ccc(NC(=O)CC(=O)n2nc(C)c(/N=N/c3ccc(C)c(C)c3)c2C)cc1` (SF-268).
33.8 µM (inactive)

* * *

Test system: LOX IMVI
assay_procedure: NCI tumour cell line growth inhibition, 48 h
Active and inactive are the calls of the source. Rule as the data show it: active = GI50 up to about 1.1 µM and inactive = higher.
Assign a class; possible classes are true (1) = active, false (0) = inactive

CN(C)C1=Nc2ccccc2C(=S)N2CSCC12 (centres undefined)	false (0)
Cn1c(=O)c2c(nc(NCCCCl)n2CC(=O)NCCCCl)n(C)c1=O	false (0)

Lab note: next compound to report on.
Called result for `CC(C)c1ccc(/C=C/c2cc(C(=O)NNC(=O)NC3CCCCC3)nc(S)n2)cc1`
false (0)

* * *

System: CCRF-CEM
assay_procedure: NCI tumour cell line growth inhibition, 48 h
The source made the active and inactive calls. Rule as the data show it: active = GI50 up to about 1.1 µM and inactive = higher.
One label from this list, please: 1 = active, 0 = inactive

Here's what some known entries look like.
CCOC(=O)C1(Br)S(=O)(=O)OCCOS1(=O)=O	0
c1cc(C2O[C@H]3CCCN3[C@@H]2c2ccncc2)ccn1 (stereo partly drawn)	0
COC(=O)/C=C/CC(=O)NS(C)(=O)=O	0
O=C(NCc1ccccc1)c1nn[nH]c1O	0
O=C1C2=C(C3=NCCc4c[nH]c1c43)c1c(cc(Br)c(O)c1Br)CCN2	0
Cc1ccc(-c2n[nH]c(=O)[nH]2)cc1[N+](=O)[O-]	0
CNC(=O)N(C1=NCC(C)S1)c1ccc(C)c(C)c1 (stereo not drawn)	0
NNc1nnc(-c2nnc(NN)o2)o1	0

Please share the test call associated with `CC(=O)/C(=C/NC(=S)Nc1ccccc1)C(=O)Nc1ccccc1C` .
0

Answer briefly: the call reported for `CC[C@@H]1CC[C@@H]2[C@H](CC[C@]3(C)[C@@H](OS(=O)(=O)c4ccc(C)cc4)CC[C@@H]23)[C@H]1COS(=O)(=O)c1ccc(C)cc1` in this assay.
0

Please state the recorded outcome for this molecule: COc1c(OC(C)=O)c(OC(C)=O)cc2c1-c1ccc(SC)c(=O)cc1C(NC(C)=O)CC2 (stereo not drawn)
1

* * *

Tested on: OVCAR-3
assay_procedure: NCI tumour cell line growth inhibition, 48 h
Active and inactive are the calls of the source. No stated cut-off is given here; in the data, active = GI50 up to about 1.1 µM and inactive = higher.
Measured GI50 accompanies every entry in the list below.

Examples with their reported GI50 follow.
CC(=O)/C(=C/N1CC(=O)NC1=S)C(=O)Nc1ccccc1C	> 100 µM (inactive)
c1ccc(-c2csc3ncn4cnnc4c23)cc1	> 100 µM (inactive)
CC(C)C(=O)N1Cc2cc(Cl)cc(Cl)c2OC(=O)c2ccccc21	22 µM (inactive)
O=C(/C=C/c1ccc(OCC(=O)N2CCN(c3ccccc3)CC2)cc1)c1ccccc1	13.2 µM (inactive)

Recall and state the measured GI50 for `Clc1ccc(-c2c(C3=NCCCN3)nnn2-c2ccccc2)cc1` .
> 100 µM (inactive)

* * *

Reported GI50 is given for each of the following compounds.
Tested on: SNB-75
assay_procedure: NCI tumour cell line growth inhibition, 48 h
Calls of active or inactive are those of the source. Cut-off read from the data, not from the text of the source: active = GI50 up to about 1.1 µM and inactive = higher.

O=C(C#Cc1ccccc1)N1c2ccccc2CC1c1c[nH]c2ccccc12 (stereo unspecified)	11.7 µM (inactive)
Cc1cccc(C)c1N1C(=O)C(=O)C(c2nc3ccccc3s2)/C(=N/NC(=O)c2ccccc2O)C1=O (stereo unspecified)	1.05 µM (active)
COC(=O)c1cc2c(n1S(=O)(=O)c1ccc(C)cc1)C(=O)C(=O)c1[nH]cc(C(=O)OCc3ccccc3)c1-2	0.147 µM (active)
COc1ccc2o/c(=N\c3ccc(F)cc3)c(C(N)=O)cc2c1	12.6 µM (inactive)
CC(=N/NC(=S)N1CCCCC1)/C(C)=N\NC(=S)N1CCCCC1	1.45 µM (inactive)

Report GI50 for `CC(C)=CC(=O)c1[nH]c2ccccc2c1CC(=O)NCCc1c[nH]cn1`
> 100 µM (inactive)

* * *

Test system: UACC-62
assay_procedure: NCI tumour cell line growth inhibition, 48 h
Activity calls are given as the source filed them. Cut-off read from the data, not from the text of the source: active = GI50 up to about 1.1 µM and inactive = higher.
Assign a class; possible classes are active, inactive

Solved cases (4 shown):
COC(=O)C1(C)CCCC2(C)C3CCC4CC3(C=C4CO)CCC12 (stereo not given)	inactive
COc1ccc2o/c(=N\c3ccc(F)cc3)c(C(N)=O)cc2c1	inactive
CCOC(=O)/C(C#N)=C(/NNc1ccccc1)c1ccncc1C(=O)O	inactive
CCOC(=O)N(c1ccccc1)N(CC)C(=O)/C(C)=N/Nc1ccc([N+](=O)[O-])cc1	inactive

Call for entry C/C=C1\C[C@@H]2C(OC)Nc3cc(O)c(OC)cc3C(=O)N2C1 (stereo not given in full) :
active

* * *

Test system: COLO 205
assay_procedure: NCI tumour cell line growth inhibition, 48 h
Calls of active or inactive are those of the source. Rule as the data show it: active = GI50 up to about 1.1 µM and inactive = higher.
In this exercise, the only acceptable responses are active, inactive

Below, 3 compounds whose answers are already recorded.
O=c1ccn([C@@H]2C=C(CO)[C@@H](O)[C@H]2O)c(=O)[nH]1	inactive
c1ccc(-c2csc3ncn4cnnc4c23)cc1	inactive
O=C1C2=C(C3=NCCc4c[nH]c1c43)c1c(cc(Br)c(O)c1Br)CCN2	inactive

Give the logged outcome of this assay for the following compound: `Clc1ccc(-c2c(C3=NCCCN3)nnn2-c2ccccc2)cc1`
inactive

Field: outcome | Entry: NC(=O)c1cn(C2OC(CO)C(O)C2O)c2nc[n+]([O-])c(N)c12 (configuration not stated)
active

// outcome(item) with item = `[O-][n+]1ccc(NO)c2ccccc21`
inactive

What did the test return for `O=C(/C=C/c1ccccc1)CCC1C(=O)NC(=O)NC1=O` ?
inactive
